Known SHP-1 recruitment blocking, IC50 of a selection of binders
- test.target: full length human SIRPα v1 with a small beta-gal fragment (ED) fused to its C-terminal, expressed in K562 … (human, UniProt P78324 31-504)
- Sequence (P78324 31-504): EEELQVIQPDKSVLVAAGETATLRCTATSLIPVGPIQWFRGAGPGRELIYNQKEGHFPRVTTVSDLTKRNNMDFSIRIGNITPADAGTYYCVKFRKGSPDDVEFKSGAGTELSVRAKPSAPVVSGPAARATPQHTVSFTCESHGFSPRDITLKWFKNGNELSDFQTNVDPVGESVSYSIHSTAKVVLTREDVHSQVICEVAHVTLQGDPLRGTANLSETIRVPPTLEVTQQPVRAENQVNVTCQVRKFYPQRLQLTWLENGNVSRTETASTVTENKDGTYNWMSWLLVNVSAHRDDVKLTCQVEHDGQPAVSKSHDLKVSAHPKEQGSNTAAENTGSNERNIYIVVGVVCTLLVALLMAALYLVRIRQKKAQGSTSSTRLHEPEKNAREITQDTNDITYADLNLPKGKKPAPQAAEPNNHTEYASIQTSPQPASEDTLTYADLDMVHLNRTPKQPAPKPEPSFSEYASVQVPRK
- experiment.summary: cell-based or functional assay
Numbers only; they are read as pM.

042c (antibody, V domains shown, also called chimeric antibody 042c) VH: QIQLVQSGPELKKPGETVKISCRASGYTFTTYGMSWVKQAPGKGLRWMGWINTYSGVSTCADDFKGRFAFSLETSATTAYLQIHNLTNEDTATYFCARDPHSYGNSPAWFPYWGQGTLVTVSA VL: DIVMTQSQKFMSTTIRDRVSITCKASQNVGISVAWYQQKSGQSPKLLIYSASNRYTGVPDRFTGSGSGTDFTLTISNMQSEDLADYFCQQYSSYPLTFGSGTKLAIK; 990
059c (antibody, V domains shown, also called chimeric antibody 059c) VH: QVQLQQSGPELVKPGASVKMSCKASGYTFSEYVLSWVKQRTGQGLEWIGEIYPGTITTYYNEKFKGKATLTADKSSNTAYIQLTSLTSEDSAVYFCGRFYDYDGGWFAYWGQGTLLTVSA VL: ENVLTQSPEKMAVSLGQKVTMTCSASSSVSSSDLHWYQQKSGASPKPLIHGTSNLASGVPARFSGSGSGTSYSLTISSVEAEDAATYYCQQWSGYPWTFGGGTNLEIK; 70
073c (antibody, V domains shown, also called chimeric antibody 073c) VH: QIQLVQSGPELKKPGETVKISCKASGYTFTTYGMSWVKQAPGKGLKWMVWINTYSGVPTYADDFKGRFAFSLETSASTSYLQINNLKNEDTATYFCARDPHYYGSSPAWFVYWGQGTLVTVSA VL: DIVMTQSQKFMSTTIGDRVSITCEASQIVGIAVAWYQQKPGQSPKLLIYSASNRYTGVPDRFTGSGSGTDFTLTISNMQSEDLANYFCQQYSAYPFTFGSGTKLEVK; 5660
071c (antibody, V domains shown, also called chimeric antibody 071c) VH: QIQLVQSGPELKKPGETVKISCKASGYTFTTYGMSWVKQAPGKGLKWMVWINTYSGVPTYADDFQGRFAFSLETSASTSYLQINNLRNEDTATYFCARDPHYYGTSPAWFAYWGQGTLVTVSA VL: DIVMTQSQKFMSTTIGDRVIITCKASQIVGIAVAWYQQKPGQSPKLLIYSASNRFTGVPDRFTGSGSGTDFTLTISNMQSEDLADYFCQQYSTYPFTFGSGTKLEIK; 2970

// below: SHP-1 recruitment blocking, IC50 requested for another binder
Item: 025c (antibody, V domains shown, also called chimeric antibody 025c; parental antibody of 025c) VH: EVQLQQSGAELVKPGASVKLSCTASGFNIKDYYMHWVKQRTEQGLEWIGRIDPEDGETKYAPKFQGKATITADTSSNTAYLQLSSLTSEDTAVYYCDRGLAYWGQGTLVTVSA VL: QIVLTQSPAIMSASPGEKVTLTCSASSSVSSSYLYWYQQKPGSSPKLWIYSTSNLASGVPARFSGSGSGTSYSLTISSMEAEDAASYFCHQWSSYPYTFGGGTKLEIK | SHP-1 recruitment blocking, IC50: 280
